These measurements were taken from the supplement of paper PMC10567573.

B1: ZC3H15 (parent)
chain: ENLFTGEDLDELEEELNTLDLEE

Variants of: B1
RUN_DESCRIPTION: protein stability index of a GFP-peptide fusion (GPS, HEK-293T) (PSI 1-6); higher = more stable;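 also: lentivirally expressed fusions sorted by FACS into six bins by GFP to DsRed ratio, PSI derived from sequencing read proportions per bin multiplied by bin number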
CONDITION_LABEL: c terminus: native
ENDPOINT: protein stability index
Answer using only a numeral; do not append any unit.

// known answers, use as guide
> print(dat)
   variant.annotation                 endpoint  meas.value
1                 E7V  protein stability index        3.99
2                 L9C  protein stability index        4.43
3                 G6L  protein stability index        4.85

q: For the variant `E13V` , what protein stability index is on record?
a: 4.83

q: # iterate: `E7M`
a: 4.69
